# Measured Target: NLRP3 inflammasome (Homo sapiens)
# Sequence (Q96P20 whole entry): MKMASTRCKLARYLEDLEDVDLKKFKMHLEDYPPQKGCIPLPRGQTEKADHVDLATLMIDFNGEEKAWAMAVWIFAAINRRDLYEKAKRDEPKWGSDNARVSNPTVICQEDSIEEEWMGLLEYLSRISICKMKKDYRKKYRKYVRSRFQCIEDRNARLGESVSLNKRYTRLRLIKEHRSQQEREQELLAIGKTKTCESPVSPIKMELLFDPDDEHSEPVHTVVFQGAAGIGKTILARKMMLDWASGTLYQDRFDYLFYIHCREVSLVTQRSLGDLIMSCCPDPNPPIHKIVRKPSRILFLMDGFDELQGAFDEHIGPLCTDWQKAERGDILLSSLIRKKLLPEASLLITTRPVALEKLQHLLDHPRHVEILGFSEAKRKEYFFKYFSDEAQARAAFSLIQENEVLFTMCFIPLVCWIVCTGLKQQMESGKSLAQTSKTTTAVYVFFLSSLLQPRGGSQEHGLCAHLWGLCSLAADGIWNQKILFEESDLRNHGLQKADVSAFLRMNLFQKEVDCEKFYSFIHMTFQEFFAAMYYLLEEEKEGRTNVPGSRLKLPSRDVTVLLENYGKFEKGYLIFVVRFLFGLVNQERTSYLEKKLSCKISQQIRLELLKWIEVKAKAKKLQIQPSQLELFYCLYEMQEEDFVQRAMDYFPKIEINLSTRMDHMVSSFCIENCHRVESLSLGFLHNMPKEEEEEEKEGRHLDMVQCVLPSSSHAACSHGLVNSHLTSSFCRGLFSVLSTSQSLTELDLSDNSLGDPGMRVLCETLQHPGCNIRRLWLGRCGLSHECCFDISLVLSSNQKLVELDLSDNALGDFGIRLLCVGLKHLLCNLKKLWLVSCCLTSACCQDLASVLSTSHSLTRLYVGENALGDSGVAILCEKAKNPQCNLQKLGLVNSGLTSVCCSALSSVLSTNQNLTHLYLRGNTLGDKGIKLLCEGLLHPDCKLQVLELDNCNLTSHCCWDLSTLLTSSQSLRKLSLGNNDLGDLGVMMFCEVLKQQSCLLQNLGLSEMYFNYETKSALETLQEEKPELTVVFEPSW
# Test: NLRP3 inflammasome activation assay, IL-1 beta release, human monocyte-like cells, MSU stimulation
# Format: cell-based
# Parameters: endogenous in cells
# Conditions: PMA-differentiated, LPS-primed human monocyte-like cells; MSU 150 μg/ml 3 h; IL-1β by AlphaLISA
pIC50: −log10 of the molar value.
Measurement Label: pIC50

>>> print(df.to_string())
                                   compound  measurement_label  test_result
0  O=C(Nc1c2c(cc3c1CCC3)CCC2)NS1(=O)=NC(=O)c2sccc21 (single isomer, unassigned) [Example 35]              pIC50       > 6.00
1  O=C(Nc1c2c(cc3c1CCC3)CCC2)NS1(=O)=NC(=O)c2ccccc2C1 (single isomer, unassigned) [Example 33]              pIC50       > 6.00
2  O=C(Nc1c2c(cc3c1CCC3)CCC2)NS1(=O)=NC(=O)c2ccccc2C1 (single isomer, unassigned) [Example 34]              pIC50       > 6.00
3  O=C(Nc1c2c(cc3c1CCC3)CCC2)NS1(=O)=NC(=O)c2ccc(Cl)cc21 (single isomer, unassigned) [Example 45]              pIC50       > 6.00
4  CC(C)c1ccc2c(c1NC(=O)NS1(=O)=NC(=O)c3sccc31)CCO2 (single isomer, unassigned)              pIC50       > 6.00
5  COc1cc(-c2ccc3c(c2NC(=O)NS2(=O)=NC(=O)c4sccc42)CCC3)ccn1 (single isomer, unassigned) [Example 53]              pIC50       > 6.00
6  O=C(Nc1c2c(cc3c1CCC3)CCC2)NS1(=O)=NC(=O)c2sccc21 (stereo not shown) [Example 4]              pIC50       > 6.00

* * *

# Measured Target: NLRP3 inflammasome (Homo sapiens)
# Test: NLRP3 inflammasome activation assay, IL-1 beta release, human monocyte-like cells, MSU stimulation
# Format: cell-based
# Set-up: endogenous in cells
# Conditions: PMA-differentiated, LPS-primed human monocyte-like cells; MSU 150 μg/ml 3 h; IL-1β by AlphaLISA
Measurement Label: IC50

In [3]: df
Out[3]:
                                   compound                    measured_target       test_result
0  COc1cc(-c2cccc(C(C)C)c2NC(=O)NS2(=O)=NC(=O)c3ccc(C(C)(C)O)cc32)ccn1 (stereo not shown) [Example 31]  NLRP3 inflammasome (Homo sapiens)         < 1000 nM
1  O=C(N=S1(=O)NC(=O)c2ccc(C(F)(F)F)cc21)Nc1c2c(cc3c1CCC3)CCC2 (stereo not shown) [Example 27]  NLRP3 inflammasome (Homo sapiens)         < 1000 nM
2  O=C(Nc1c2c(cc3c1CCC3)CCC2)NS1(=O)=NC(=O)c2sccc21 (single isomer, unassigned) [Example 36]  NLRP3 inflammasome (Homo sapiens)         < 1000 nM
3  O=C(Nc1c2c(c(F)c3c1CCC3)CCC2)NS1(=O)=NC(=O)c2ccccc21 (single isomer, unassigned) [Example 37]  NLRP3 inflammasome (Homo sapiens)         < 1000 nM
4  O=C(Nc1c(Br)ccc2c1CCO2)NS1(=O)=NC(=O)c2sccc21 (single isomer, unassigned) [Example 56]  NLRP3 inflammasome (Homo sapiens)  1000 to 10000 nM
5  O=C(Nc1c2c(cc3c1CCC3)CCC2)NS1(=O)=NC(=O)c2cc(Br)ccc21 (stereo not shown) [Example 23]  NLRP3 inflammasome (Homo sapiens)         < 1000 nM
6  Cc1cccc2c1C(=O)N=S2(=O)NC(=O)Nc1c2c(cc3c1CCC3)CCC2 (single isomer, unassigned) [Example 47]  NLRP3 inflammasome (Homo sapiens)         < 1000 nM

* * *

Reported IC50 by item:
# Measured Target: UniProt:Q96P20
# Test: NLRP3 inflammasome activation assay, IL-1 beta release, HMDM cells, Nigericin stimulation
# Format: cell-based
# Conditions: LPS-primed primary human monocyte-derived macrophages; Nigericin 2.5 μM 3 h; IL-1β by AlphaLISA
Measurement Label: IC50

>>> df
                                    compound       test_result
 0  COc1ccc2c(c1)S(=O)(NC(=O)Nc1c3c(cc4c1CCC4)CCC3)=NC2=O (single isomer, unassigned) [Example 48]         < 1000 nM
 1  O=C(Nc1c2c(c(F)c3c1CCC3)CCC2)NS1(=O)=NC(=O)c2sccc21 (single isomer, unassigned) [Example 55]         < 1000 nM
 2  O=C(N=S1(=O)NC(=O)c2ccccc21)Nc1c2c(cc3c1CCC3)CCC2 (racemic) [Example 1]  1000 to 10000 nM
 3  O=C(Nc1c2c(cc3c1CCC3)CCC2)NS1(=O)=NC(=O)c2ccccc2C1 (single isomer, unassigned) [Example 34]  1000 to 10000 nM
 4  O=C(Nc1c2c(cc3c1CCC3)CCC2)NS1(=O)=NC(=O)c2cc(F)ccc21 (single isomer, unassigned) [Example 62]  1000 to 10000 nM
 5  O=C(Nc1c2c(cc3c1CCC3)CCC2)NS1(=O)=NC(=O)c2sccc21 (centres unmarked) [Example 4]  1000 to 10000 nM
 6  CC(C)(O)c1ccc2c(c1)S(=O)(=NC(=O)Nc1c3c(cc4c1CCC4)CCC3)NC2=O (single isomer, unassigned) [Example 41]         < 1000 nM
 7  CC(C)(O)c1ccc2c(c1)S(=O)(=NC(=O)Nc1c3c(cc4c1CCC4)CCC3)NC2=O (centres unmarked) [Example 30]         < 1000 nM
 8  COc1cc(-c2cccc(C(C)C)c2NC(=O)NS2(=O)=NC(=O)c3ccc(C(C)(C)O)cc32)ccn1 (centres unmarked) [Example 31]  1000 to 10000 nM
 9  O=C(Nc1c2c(cc3c1CCC3)CCC2)NS1(=O)=NC(=O)c2sccc21 (single isomer, unassigned) [Example 36]         < 1000 nM
10  O=C(Nc1c2c(c(F)c3c1CCC3)CCC2)NS1(=O)=NC(=O)c2sccc21 (centres unmarked) [Example 19]         < 1000 nM
11  O=C(Nc1c2c(c(F)c3c1CCC3)CCC2)NS1(=O)=NC(=O)c2ccccc21 (centres unmarked) [Example 5]  1000 to 10000 nM
12  O=C(Nc1c2c(cc3c1CCC3)CCC2)NS1(=O)=NC(=O)c2c(Cl)cccc21 (centres unmarked) [Example 11]  1000 to 10000 nM
13  O=C(Nc1c2c(cc3c1CCC3)CCC2)NS1(=O)=NC(=O)c2nc(Cl)ccc21 (single isomer, unassigned) [Example 64]  1000 to 10000 nM
14  O=C(Nc1c2c(cc3c1CCC3)CCC2)NS1(=O)=NC(=O)c2c(Cl)cccc21 (single isomer, unassigned) [Example 42]  1000 to 10000 nM
15  O=C(Nc1c2c(c(F)c3c1CCC3)CCC2)NS1(=O)=NC(=O)c2ccccc21 (single isomer, unassigned) [Example 37]  1000 to 10000 nM
16  Cc1cccc2c1C(=O)N=S2(=O)NC(=O)Nc1c2c(cc3c1CCC3)CCC2 (centres unmarked) [Example 14]  1000 to 10000 nM
17  O=C(N=S1(=O)NC(=O)c2ccc(Br)cc21)Nc1c2c(cc3c1CCC3)CCC2 (single isomer, unassigned) [Example 60]  1000 to 10000 nM
18  O=C(Nc1c2c(cc3c1CCC3)CCC2)NS1(=O)=NC(=O)c2ccccc2C1 (centres unmarked) [Example 3]  1000 to 10000 nM
19  O=C(N=S1(=O)NC(=O)c2ccccc21)Nc1c2c(cc3c1CCC3)CCC2 (single isomer, unassigned) [Example 1b]  1000 to 10000 nM

* * *

# Measured Target: NLRP3 inflammasome (Homo sapiens)
# Test: NLRP3 inflammasome activation assay, IL-1 beta release, human monocyte-like cells, Nigericin stimulation
# Format: cell-based
# Design: endogenous in cells
# Conditions: PMA-differentiated, LPS-primed human monocyte-like cells; Nigericin 3.75 μM 3 h; IL-1β by AlphaLISA
Measurement Label: IC50

In [3]: df
Out[3]:
                                    molecule  measurement_label  test_result
 0  O=C(Nc1c2c(cc3c1CCC3)CCC2)NS1(=O)=NC(=O)c2ccc(Cl)cc21 (centres unmarked) [Example 13]               IC50   1 to 10 µM
 1  O=C(Nc1c2c(cc3c1CCC3)CCC2)NS1(=O)=NC(=O)c2cc(Br)ccc21 (single isomer, unassigned) [Example 59]               IC50   1 to 10 µM
 2  O=C(Nc1c2c(c(F)c3c1CCC3)CCC2)NS1(=O)=NC(=O)c2sccc21 (single isomer, unassigned) [Example 54]               IC50   1 to 10 µM
 3  O=C(N=S1(=O)NC(=O)c2ccccc21)Nc1c2c(cc3c1CCC3)CCC2 (racemic) [Example 1]               IC50   1 to 10 µM
 4  Cc1cccc2c1C(=O)N=S2(=O)NC(=O)Nc1c2c(cc3c1CCC3)CCC2 (centres unmarked) [Example 14]               IC50   1 to 10 µM
 5  O=C(Nc1c2c(cc3c1CCC3)CCC2)NS1(=O)=NC(=O)c2c(Cl)cccc21 (single isomer, unassigned) [Example 43]               IC50   1 to 10 µM
 6  COc1ccc2c(c1)S(=O)(NC(=O)Nc1c3c(cc4c1CCC4)CCC3)=NC2=O (centres unmarked) [Example 15]               IC50       < 1 µM
 7  O=C(Nc1c2c(cc3c1CCC3)CCC2)NS1(=O)=NC(=O)c2ccc(F)cc21 (single isomer, unassigned) [Example 63]               IC50   1 to 10 µM
 8  O=C(Nc1c2c(c(F)c3c1CCC3)CCC2)NS1(=O)=NC(=O)c2ccccc21 (single isomer, unassigned) [Example 37]               IC50       < 1 µM
 9  O=C(Nc1c2c(cc3c1CCC3)CCC2)NS1(=O)=NC(=O)c2ccc(F)cc21 (centres unmarked) [Example 28]               IC50   1 to 10 µM
10  COc1ccc2c(c1)C(=O)N=S2(=O)NC(=O)Nc1c2c(cc3c1CCC3)CCC2 (centres unmarked) [Example 22]               IC50   1 to 10 µM
11  O=C(N=S1(=O)NC(=O)c2ccccc21)Nc1c2c(cc3c1CCC3)CCC2 (single isomer, unassigned) [Example 1b]               IC50   1 to 10 µM
12  O=C(Nc1c2c(cc3c1CCC3)CCC2)NS1(=O)=NC(=O)c2ccccc2C1 (single isomer, unassigned) [Example 34]               IC50       < 1 µM
13  O=C(Nc1c2c(c(F)c3c1CCC3)CCC2)NS1(=O)=NC(=O)c2sccc21 (centres unmarked) [Example 19]               IC50       < 1 µM
14  O=C(Nc1c2c(cc3c1CCC3)CCC2)NS1(=O)=NC(=O)c2cc(Br)ccc21 (centres unmarked) [Example 23]               IC50   1 to 10 µM
15  O=C(Nc1c2c(cc3c1CCC3)CCC2)NS1(=O)=NC(=O)c2sccc21 (centres unmarked) [Example 4]               IC50       < 1 µM
16  O=C(Nc1c2c(c(F)c3c1CCC3)CCC2)NS1(=O)=NC(=O)c2ccccc21 (centres unmarked) [Example 5]               IC50   1 to 10 µM
17  CC(C)(O)c1ccc2c(c1)S(=O)(=NC(=O)Nc1c3c(cc4c1CCC4)CCC3)NC2=O (single isomer, unassigned) [Example 41]               IC50       < 1 µM
18  COc1cc(-c2cccc(C(C)C)c2NC(=O)NS2(=O)=NC(=O)c3ccc(C(C)(C)O)cc32)ccn1 (centres unmarked) [Example 31]               IC50       < 1 µM
19  O=C(N=S1(=O)NC(=O)c2ccc(Br)cc21)Nc1c2c(cc3c1CCC3)CCC2 (centres unmarked) [Example 24]               IC50   1 to 10 µM
20  O=C(Nc1c2c(cc3c1CCC3)CCC2)NS1(=O)=NC(=O)c2ncccc21 (centres unmarked) [Example 8]               IC50   1 to 10 µM
21  O=C(Nc1c2c(cc3c1CCC3)CCC2)NS1(=O)=NC(=O)c2c(Cl)cccc21 (single isomer, unassigned) [Example 42]               IC50   1 to 10 µM
22  O=C(Nc1c2c(cc3c1CCC3)CCC2)NS1(=O)=NC(=O)c2ncccc21 (single isomer, unassigned) [Example 39]               IC50   1 to 10 µM
23  O=C(Nc1c2c(cc3c1CCC3)CCC2)NS1(=O)=NC(=O)c2sccc21 (single isomer, unassigned) [Example 36]               IC50       < 1 µM
24  O=C(Nc1c2c(c(F)c3c1CCC3)CCC2)NS1(=O)=NC(=O)c2sccc21 (single isomer, unassigned) [Example 55]               IC50       < 1 µM
25  O=C(Nc1cc2c(c3c1CCC3)CCC2)NS1(=O)=NC(=O)c2ccccc21 (centres unmarked) [Example 6]               IC50   1 to 10 µM
26  O=C(Nc1c2c(cc3c1CCC3)CCC2)NS1(=O)=NC(=O)c2ccc(Cl)cc21 (single isomer, unassigned) [Example 45]               IC50   1 to 10 µM
27  O=C(Nc1c2c(cc3c1CCC3)CCC2)NS1(=O)=NC(=O)c2c(F)cccc21 (centres unmarked) [Example 25]               IC50   1 to 10 µM
28  COc1cc(-c2cc(F)cc(C(C)C)c2NC(=O)NS2(=O)=NC(=O)c3sccc32)ccn1 (single isomer, unassigned) [Example 50]               IC50   1 to 10 µM
